system: Pseudomonas aeruginosa; assay: Antimicrobial activity against colistin resistant Pseudomonas aeruginosa 7197/19 assessed as bacterial growth inhibition incubated for 20 hrs by broth microdilution method; format: functional
Positions of bridges follow the written chain, without caps; N, C: chain ends. Non-standard residues stand in square brackets, D forms with d. Residues, ends and D or L forms follow the SMILES beside them. *: point of attachment. d(hhPhe) = N[C@H](CCCc1ccccc1)C(=O)O; Gly(octyl) = CCCCCCCC[C@H](N)C(=O)O; hPhe = N[C@@H](CCc1ccccc1)C(=O)O; Octanoyl = CCCCCCCC(=O)*; Dab = NCC[C@H](N)C(=O)O
// values below are reported MIC
API: value field is a number in µg/mL; no unit string.

>>> recorded_value("CCCCCCCC(=O)N[C@@H](CCN)C(=O)N[C@H](C(=O)N[C@@H](CCN)C(=O)N[C@H]1CCNC(=O)[C@H]([C@@H](C)O)NC(=O)[C@H](CCN)NC(=O)[C@H](CCN)NC(=O)[C@H](CCc2ccccc2)NC(=O)[C@@H](CC(C)C)NC(=O)[C@H](CCN)NC1=O)[C@@H](C)O (Octanoyl-[Dab]T[Dab][Dab][Dab][dL][hPhe][Dab][Dab]T; lactam 4-C)")
1

Assign MIC to the following record: CC(=O)N[C@H](Cc1ccc(C(F)(F)F)cc1)C(=O)N[C@@H](CCN)C(=O)N[C@H](C(=O)N[C@@H](CCN)C(=O)N[C@H]1CCNC(=O)[C@H]([C@@H](C)O)NC(=O)[C@H](CCN)NC(=O)[C@H](CCN)NC(=O)[C@H](CC(C)C)NC(=O)[C@@H](Cc2ccccc2)NC(=O)[C@@H](CCN)NC1=O)[C@H](C)O
32

Assign MIC to the following record: CCCCCCCC[C@@H]1NC(=O)[C@@H](Cc2ccccc2)NC(=O)[C@H](CCN)NC(=O)[C@@H](NC(=O)[C@H](CCN)NC(=O)[C@@H](NC(=O)[C@H](CCN)NC(=O)CCCCCCC)[C@@H](C)O)CCNC(=O)[C@H]([C@@H](C)O)NC(=O)[C@H](CCN)NC(=O)[C@H](CCN)NC1=O (Octanoyl-[Dab]T[Dab][Dab][Dab][dF][Gly(octyl)][Dab][Dab]T; lactam 4-C)
0.25

Assign MIC to the following record: CCCCCCCC(=O)N[C@@H](CCN)C(=O)N[C@H](C(=O)N[C@@H](CCN)C(=O)N[C@H]1CCNC(=O)[C@H]([C@@H](C)O)NC(=O)[C@H](CCN)NC(=O)[C@H](CCN)NC(=O)[C@H](CC(C)C)NC(=O)[C@@H](CCCc2ccccc2)NC(=O)[C@H](CCN)NC1=O)[C@@H](C)O (Octanoyl-[Dab]T[Dab][Dab][Dab][d(hhPhe)]L[Dab][Dab]T; lactam 4-C)
0.5

---

system: Klebsiella pneumoniae; assay: Antimicrobial activity against Klebsiella pneumoniae ATCC 13883 assessed as bacterial growth inhibition incubated for 20 hrs by broth microdilution method; type: functional
Positions of bridges follow the written chain, without caps; N, C: chain ends. Non-standard residues stand in square brackets, D forms with d. Residues, ends and D or L forms follow the SMILES beside them. *: point of attachment. Gly(octyl) = CCCCCCCC[C@H](N)C(=O)O; Octanoyl = CCCCCCCC(=O)*; Dab = NCC[C@H](N)C(=O)O
measured.parameter: MIC (µg/mL)
API: value field is a number in µg/mL; no unit string.

>>> recorded_value("CC(=O)N[C@H](Cc1ccc(Br)cc1)C(=O)N[C@@H](CCN)C(=O)N[C@H](C(=O)N[C@@H](CCN)C(=O)N[C@H]1CCNC(=O)[C@H]([C@@H](C)O)NC(=O)[C@H](CCN)NC(=O)[C@H](CCN)NC(=O)[C@H](CC(C)C)NC(=O)[C@@H](Cc2ccccc2)NC(=O)[C@@H](CCN)NC1=O)[C@H](C)O")
8
>>> recorded_value("CCCCCCCC(=O)N[C@@H](CCN)C(=O)N[C@H](C(=O)N[C@@H](CCN)C(=O)N[C@H]1CCNC(=O)[C@H]([C@@H](C)O)NC(=O)[C@H](CCN)NC(=O)[C@H](CCN)NC(=O)[C@H](CC(C)C)NC(=O)[C@@H](Cc2ccc(Br)cc2)NC(=O)[C@H](CCN)NC1=O)[C@@H](C)O")
0.125

Here is the next item to consider.
Assign MIC to the following record: CCCCCCCC[C@@H]1NC(=O)[C@@H](Cc2ccccc2)NC(=O)[C@H](CCN)NC(=O)[C@@H](NC(=O)[C@H](CCN)NC(=O)[C@@H](NC(=O)[C@H](CCN)NC(=O)CCCCCCC)[C@@H](C)O)CCNC(=O)[C@H]([C@@H](C)O)NC(=O)[C@H](CCN)NC(=O)[C@H](CCN)NC1=O (Octanoyl-[Dab]T[Dab][Dab][Dab][dF][Gly(octyl)][Dab][Dab]T; lactam 4-C)
0.25

Data origin, for the record: ChEMBL document CHEMBL5537158
